Hello, the source for this data is patent US9493486B2, in case you need it.

IC50 values recorded for ATX (human His-tagged) (Homo sapiens (Human))
readout_type: IC50 (nM)

Example compounds with recorded IC50:
>>> print(df.to_string())
                                   compound  readout_type  value_measured
0  O=C(OCc1ccccc1)N1CC2(CC(NS(=O)(=O)c3ccc4[nH]c(=O)oc4c3)C2)C1          IC50             298
1  O=C(OCc1ccc(C(F)(F)F)cc1)N1CCC2(CC1)CN(C(=O)c1ccc3[nH]nnc3c1)C2          IC50              35

I = O=C(OCc1cc(Cl)cc(Cl)c1)N1CC2(CCN(C(=O)c3ccc4[nH]nnc4c3)CC2)C1
II = O=C(OCc1ccc(OC(F)(F)F)cc1)N1CCC2(CC1)CN(C(=O)C1CCc3[nH]nnc3C1)C2 (stereo not shown)
QUERY: Field: lower IC50 | Options: I / II Let me know the label of the one you choose.
RESULT: II

###

pIC50 values recorded for ATX (human His-tagged) (Homo sapiens (Human))
pIC50: −log10 of the molar value.
readout_type: pIC50

Example molecules with recorded pIC50:
In [3]: df
Out[3]:
                                   molecule  value_measured
0  O=C(c1cc(Cl)cc(Cl)c1)N1CCC2(CC1)CN(C(=O)c1ccc3[nH]nnc3c1)C2 [Example 6.3]            5.57
1  O=C(OCc1cnc(Cl)c(Cl)c1)N1CCC2(CC1)CN(C(=O)c1ccc3[nH]nnc3c1)C2 [Example 12.03]            6.21
2  O=C(OCc1ccc(C(F)(F)F)cc1F)N1CCC2(CC1)CN(C(=O)[C@@H]1CCc3[nH]nnc3C1)C2 [Example 16B]            8.05
3  O=C(OCc1cc(Cl)cc(Cl)c1)N1CC2(CCN(C(=O)c3ccc4[nH]c(=O)oc4c3)CC2)C1 [Example 2.2]            7.86
4  O=C(NC1CC2(C1)CN(C(=O)CCCc1ccccc1)C2)c1ccc2[nH]nnc2c1 [Example 1.08]            5.47
5  CS(=O)(=O)c1ccc(COC(=O)N2CCC3(CC2)CN(C(=O)c2ccc4[nH]nnc4c2)C3)c(Cl)c1 [Example 12.28]            6.86
6  O=C(OCc1ccc(Cl)cc1)N1CCC2(CC1)CN(C(=O)c1ccc3[nH]nnc3c1)C2 [Example 1.02]            6.89
7  O=C(OCc1cc(Cl)cc(Cl)c1)N1CC2(CC(NS(=O)(=O)c3ccc4[nH]c(=O)oc4c3)C2)C1 [Example 3.4]            7.71

P = O=C(NC1CC2(C1)CN(C(=O)OCc1cc(Cl)cc(Cl)c1)C2)c1ccc2[nH]nnc2c1 [Example 1.13]
Q = Cc1ccc(COC(=O)N2CC3(CC(NC(=O)c4ccc5[nH]nnc5c4)C3)C2)cc1Cl [Example 12.24]
QUERY: Field: lower pIC50 | Options: P / Q Let me know the label of the one you choose.
RESULT: P
(P: 5.27, Q: 6.64)

###

IC50 values recorded for ATX (human His-tagged) (Homo sapiens (Human), UniProt Q13822)
readout_type: IC50 (nM)

1 = O=C(/C=C/c1cc(Cl)cc(Cl)c1)N1CCC2(CC1)CN(C(=O)c1ccc3[nH]nnc3c1)C2 [Example 6]
2 = O=C(NC1CC2(C1)CN(C(=O)OCc1cc(Cl)cc(OC(F)(F)F)c1)C2)c1ccc2[nH]nnc2c1 [Example 12.18]
QUERY: Field: lower IC50 | Options: 1 / 2 Let me know the label of the one you choose.
RESULT: 1

I = O=C(OCc1ccc(OC(F)(F)F)cc1F)N1CCC2(CC1)CN(C(=O)N1CCc3[nH]nnc3C1)C2 [Example 13.01]
II = O=C(CCCc1ccccc1)N1CC2(CC(NS(=O)(=O)c3ccc4[nH]c(=O)oc4c3)C2)C1 [Example 3.1]
QUERY: Field: lower IC50 | Options: I / II Let me know the label of the one you choose.
RESULT: I

A = O=C(OCc1cc(Cl)cc(Cl)c1)N1CCC2(CC1)CN(C(=O)c1ccc3[nH]nnc3c1)C2 [Example 1]
B = O=C(OCc1cncc(Cl)c1)N1CCC2(CC1)CN(C(=O)c1ccc3[nH]nnc3c1)C2 [Example 12.08]
QUERY: Field: lower IC50 | Options: A / B Let me know the label of the one you choose.
RESULT: A

###

biological target: ATX (human His-tagged) (Homo sapiens (Human)); assay: Human ATX enzyme inhibition assay (fluorescence quenching, MR121 substrate); format: biochemical; details: 30 nM ATX, 1 μM MR121 substrate, 30° C.
readout_type: IC50 (nM)

I = O=C(OCc1csc(Cl)c1)N1CCC2(CC1)CN(C(=O)c1ccc3[nH]nnc3c1)C2
II = O=C(c1ccc2[nH]nnc2c1)N1CCC2(CCN(C(=O)c3cc4cc(Cl)ccc4[nH]3)C2)C1 (stereo not shown)
III = NS(=O)(=O)c1ccc(C(=O)N2CC3(CCN(C(=O)OCc4ccc(OC(F)(F)F)cc4)CC3)C2)cc1
QUERY: List by increasing IC50. Labels, ranked as asked.
RESULT: III, I, II

I = CS(=O)(=O)c1cc(Cl)cc(COC(=O)N2CCC3(CC2)CN(C(=O)c2ccc4[nH]c(=O)oc4c2)C3)c1
II = O=C(OCc1ccc(F)c(Cl)c1)N1CCC2(CC1)CN(C(=O)c1ccc3[nH]nnc3c1)C2
III = O=C(OCc1cc(Cl)cc(Cl)c1)N1CCC2(CCN(C(=O)c3ccc4[nH]nnc4c3)C2)C1 (stereo not shown)
IV = O=C(CCc1cc(Cl)cc(Cl)c1)N1CCC2(CC1)CN(C(=O)c1ccc3[nH]nnc3c1)C2
QUERY: Put these in order: smallest IC50 first, largest last. Labels, ranked as asked.
RESULT: I, IV, II, III

###

molecular target: ATX (human His-tagged) (Homo sapiens (Human), UniProt Q13822)
readout_type: IC50 (nM)

>>> df
                                   compound  quantity_unit  value_measured
0  O=C(C#Cc1cccc(Cl)c1)N1CCC2(CC1)CN(C(=O)c1ccc3[nH]nnc3c1)C2             nM             826

a = O=C(c1ccc2[nH]nnc2c1)N1CCC2(CCN(C(=O)c3cc4cc(Cl)ccc4o3)C2)C1 (centres unmarked)
b = O=C(NC1CC2(C1)CN(C(=O)OCc1ccc(F)c(Cl)c1)C2)c1ccc2[nH]nnc2c1
QUERY: Field: lower IC50 | Options: a / b Let me know the label of the one you choose.
RESULT: b
(b: 1250 nM, a: 3930 nM)

a = CS(=O)(=O)c1cc(COC(=O)N2CCC3(CC2)CN(C(=O)c2ccc4[nH]nnc4c2)C3)ccc1Cl
b = O=C(OCc1ccc(OC(F)(F)F)cc1)N1CC2(CCN(C(=O)C3CCc4[nH]nnc4C3)CC2)C1 (centres unmarked)
c = O=C(OCc1cc(Cl)cc(Cl)c1)N1CCC2(C1)CN(C(=O)c1ccc3[nH]nnc3c1)C2
d = O=C(NC1CC2(C1)CN(S(=O)(=O)c1ccc3[nH]c(=O)oc3c1)C2)OCc1cc(Cl)cc(Cl)c1
e = O=C(OCc1ccc(OCC(F)(F)F)cc1)N1CCC2(CC1)CN(C(=O)C1CCc3nn[nH]c3C1)C2 (centres unmarked)
QUERY: List from greatest to least IC50. Labels, ranked as asked.
RESULT: a, c, d, b, e
(a: 7240 nM, c: 73.7 nM, d: 20 nM, b: 10 nM, e: 5 nM)

1 = O=C(OCc1cc(Cl)cc(Cl)n1)N1CCC2(CC1)CN(C(=O)c1ccc3[nH]nnc3c1)C2
2 = O=C(NC1CC2(C1)CN(C(=O)OCc1ccccc1)C2)c1ccc2[nH]nnc2c1
QUERY: Field: lower IC50 | Options: 1 / 2 Let me know the label of the one you choose.
RESULT: 1
(1: 291 nM, 2: 4140 nM)

###

target: ATX (human His-tagged) (Homo sapiens (Human), UniProt Q13822)
pIC50: −log10 of the molar value.
readout_type: pIC50

Example compounds with recorded pIC50:
>>> df
                                   compound                     target_or_test_system  value_measured
0  CS(=O)(=O)c1cc(Cl)cc(COC(=O)N2CCC3(CC2)CN(C(=O)c2ccc(S(N)(=O)=O)cc2)C3)c1  ATX (human His-tagged) (Homo sapiens (Human), UniProt Q13822)            6.14
1  O=C(OCc1ccccc1)N1CCC2(CC1)CN(C(=O)c1ccc3[nH]nnc3c1)C2  ATX (human His-tagged) (Homo sapiens (Human), UniProt Q13822)            5.62
2  O=C(NC1CC2(C1)CN(C(=O)c1ccc3[nH]nnc3c1)C2)OCc1ccccc1  ATX (human His-tagged) (Homo sapiens (Human), UniProt Q13822)            5.43

I = CC(OC(=O)N1CCC2(CC1)CN(C(=O)c1ccc3[nH]nnc3c1)C2)c1cc(Cl)cc(Cl)c1 (stereo not shown)
II = O=C(OCc1ccc(C(F)(F)F)cc1F)N1CCC2(CC1)CN(C(=O)C1CCc3[nH]nnc3C1)C2 (stereo not shown)
III = O=C(OCc1ccc(OCC(F)(F)F)c(F)c1)N1CCC2(CC1)CN(C(=O)C1CCc3nn[nH]c3C1)C2 (stereo not shown)
IV = O=C(OCc1ccc(C(F)(F)F)cc1F)N1CCC2(CC1)CN(C(=O)[C@H]1CCc3[nH]nnc3C1)C2 [Example 16A]
QUERY: List from greatest to least pIC50. Labels, ranked as asked.
RESULT: II, III, IV, I

a = O=C(OCc1ccccc1)N1CCC2(CC1)CC(Nc1ccc3[nH]c(=O)oc3c1)C2
b = O=C(OCc1ccc(Cl)cc1Cl)N1CCC2(CC1)CN(C(=O)c1ccc3[nH]nnc3c1)C2
QUERY: In the pair a and b , the larger recorded pIC50 belongs to which? Let me know the label of the one you choose.
RESULT: b
(b: 7.77, a: 5.89)
